A collection of compounds and their measured LC50
Test system: HUVEC
Test: Growth inhibition of human HUVEC cells after 48 hrs by SRB assay
Assay type: cell-based
Conditions: huvec, 48 h
Kindly provide the numeric value in µM only, without the unit symbol.

Before answering, review these 3 worked examples.
IN: What value of LC50 has been recorded for this entry: c1ccc(C(c2ccc(CN3CCNCC3)cc2)C23CC4CC(CC(C4)C2)C3)cc1 (stereo unspecified)
OUT: 17.43

IN: Find the recorded LC50 belonging to CCN1CCN(CCc2ccc(C(c3ccccc3)C34CC5CC(CC(C5)C3)C4)cc2)CC1 (stereo unspecified) and report it.
OUT: 9.62

IN: Query: LC50; subject: c1ccc(C(c2ccc(CCCN3CCCCC3)cc2)C23CC4CC(CC(C4)C2)C3)cc1 (stereo unspecified)
OUT: 9.18

Next:
IN: Can you look up the measured LC50 of CN1CCN(CCCc2ccc(C(c3ccccc3)C34CC5CC(CC(C5)C3)C4)cc2)CC1 (stereo unspecified) for me?
OUT: 8.62

IN: Record request: LC50 value, item CN1CCN(CCc2ccc(C(c3ccccc3)C34CC5CC(CC(C5)C3)C4)cc2)CC1 (stereo unspecified)
OUT: 9.6

IN: Name the reported LC50 value associated with the compound c1ccc(C(c2ccc(CN3CCCCC3)cc2)C23CC4CC(CC(C4)C2)C3)cc1 (stereo unspecified)
OUT: 72.47

IN: Given the compound CCN1CCN(CCCc2ccc(C(c3ccccc3)C34CC5CC(CC(C5)C3)C4)cc2)CC1 (stereo unspecified) , what is its reported LC50?
OUT: 9.4

IN: Record request: LC50 value, item c1ccc(C(c2ccc(CCN3CCCCC3)cc2)C23CC4CC(CC(C4)C2)C3)cc1 (stereo unspecified)
OUT: 100

* * *

Target: Sigma non-opioid intracellular receptor 1 (Homo sapiens)
Sequence (Q99720 whole entry): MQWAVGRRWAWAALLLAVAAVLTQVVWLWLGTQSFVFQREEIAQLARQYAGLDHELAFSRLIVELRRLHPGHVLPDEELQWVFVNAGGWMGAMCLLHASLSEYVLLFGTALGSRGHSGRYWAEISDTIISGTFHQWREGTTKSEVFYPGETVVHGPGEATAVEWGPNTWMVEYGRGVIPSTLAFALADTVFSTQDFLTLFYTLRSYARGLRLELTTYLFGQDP
Test: Displacement of [3H]-(+)-pentazocine from sigma 1 receptor in human Jurkat cell membrane
Metric Name: IC50 (nM)
Report the figure in nM without appending any unit label.

IN: May I ask what IC50 has been recorded for c1ccc(C(c2ccc(CCCN3CCCCC3)cc2)C23CC4CC(CC(C4)C2)C3)cc1 (stereo unspecified) ?
OUT: 12.3

IN: What does the record list as IC50 for c1ccc(CN2CCN(CCCc3ccc(C(c4ccccc4)C45CC6CC(CC(C6)C4)C5)cc3)CC2)cc1 (stereo unspecified) ?
OUT: 36.1

IN: Consider the molecule CN1CCN(CCCc2ccc(C(c3ccccc3)C34CC5CC(CC(C5)C3)C4)cc2)CC1 (stereo unspecified) and give its measured IC50.
OUT: 48.1

IN: For the molecule c1ccc(C(c2ccc(CCCN3CCNCC3)cc2)C23CC4CC(CC(C4)C2)C3)cc1 (stereo unspecified) , what IC50 is on record?
OUT: 42

IN: May I ask what IC50 has been recorded for CN1CCN(Cc2ccc(C(c3ccccc3)C34CC5CC(CC(C5)C3)C4)cc2)CC1 (stereo unspecified) ?
OUT: 5.2

Continuing:
IN: Can you look up the measured IC50 of CN1CCN(CCc2ccc(C(c3ccccc3)C34CC5CC(CC(C5)C3)C4)cc2)CC1 (stereo unspecified) for me?
OUT: 2.9

* * *

Test system: OVCAR-5
Experiment: Growth inhibition of human OVCAR5 cells after 48 hrs by SRB assay
Assay type: functional
Conditions: OVCAR-5, 48 h, read-out: LC50 (the source's name)
Metric Name: CC50 (µM)
# value in µM; strip the unit string

IN: Item: CN1CCN(CCCc2ccc(C(c3ccccc3)C34CC5CC(CC(C5)C3)C4)cc2)CC1 (stereo not given) Test system: OVCAR-5 Read-out: CC50 Value: ?
OUT: 0.0102

IN: # value lookup — system OVCAR-5, readout CC50, item O=c1[nH]cc(F)c(=O)[nH]1 [FLUOROURACIL]
OUT: 0.1

IN: // fetch OVCAR-5 CC50 for c1ccc(C(c2ccc(CCN3CCCCC3)cc2)C23CC4CC(CC(C4)C2)C3)cc1 (stereo not given)
OUT: 0.0977

IN: Quick check: CC50 on OVCAR-5, item c1ccc(C(c2ccc(CN3CCCCC3)cc2)C23CC4CC(CC(C4)C2)C3)cc1 (stereo not given) ?
OUT: 0.0915

IN: What value of CC50 on OVCAR-5 does CCN1CCN(CCc2ccc(C(c3ccccc3)C34CC5CC(CC(C5)C3)C4)cc2)CC1 (stereo not given) have?
OUT: 0.0685
